EC50 values for the compounds below.
# measurementTarget: TRH-R1 (Mus musculus)
# testProtocol: Signaling

Query (compound): CC(C)c1nc(C[C@H](NC(=O)[C@@H]2CCC(=O)N2)C(=O)N2CCC[C@H]2C(N)=O)cn1C ; field requested: EC50 > 50 µM

Query (compound): CC(C)n1cnc(C[C@H](NC(=O)[C@@H]2CCC(=O)C2)C(=O)N2CCC[C@H]2C(N)=O)c1 ; field requested: EC50 > 50 µM

Query (compound): Cn1cc(C[C@H](NC(=O)[C@@H]2CCCC(=O)N2)C(=O)N2CCC[C@H]2C(N)=O)nc1C(C)(C)C ; field requested: EC50 > 50 µM

Query (compound): CCCn1cnc(C[C@H](NC(=O)[C@@H]2CCC(=O)C2)C(=O)N2CCC[C@H]2C(N)=O)c1 ; field requested: EC50 4.6 µM

Query (compound): CCCc1nc(C[C@H](NC(=O)[C@@H]2CCC(=O)C2)C(=O)N2CCC[C@H]2C(N)=O)cn1C ; field requested: EC50 > 50 µM

Query (compound): Cn1cc(C[C@H](NC(=O)[C@@H]2CCC(=O)N2)C(=O)N2CCC[C@H]2C(N)=O)nc1C(C)(C)C ; field requested: EC50 > 50 µM

====

# measurementTarget: TRH-R1 (Mus musculus, UniProt P21761)
# Sequence (P21761 whole entry): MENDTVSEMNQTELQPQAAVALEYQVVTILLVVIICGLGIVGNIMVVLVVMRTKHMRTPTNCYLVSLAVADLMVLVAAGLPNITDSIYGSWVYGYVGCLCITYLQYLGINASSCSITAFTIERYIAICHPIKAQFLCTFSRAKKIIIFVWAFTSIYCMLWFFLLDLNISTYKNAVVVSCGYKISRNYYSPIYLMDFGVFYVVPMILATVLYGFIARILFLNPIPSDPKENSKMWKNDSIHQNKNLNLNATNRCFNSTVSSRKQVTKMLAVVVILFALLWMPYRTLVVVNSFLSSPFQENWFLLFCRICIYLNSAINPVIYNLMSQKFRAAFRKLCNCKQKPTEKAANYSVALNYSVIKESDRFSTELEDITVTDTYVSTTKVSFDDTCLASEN
endpointLabel: Ki

As a guide, the following entries are already answered.
{"columns": ["smilesRepr", "resultValue"],
 "data": [
  ["Cn1cnc(C[C@H](NC(=O)[C@@H]2CCC(=O)C2)C(=O)N2CCC[C@H]2C(N)=O)c1", "0.17 µM"],
  ["CCCc1nc(C[C@H](NC(=O)[C@@H]2CCC(=O)C2)C(=O)N2CCC[C@H]2C(N)=O)cn1C", "> 50 µM"],
  ["CCCc1nc(C[C@H](NC(=O)[C@@H]2CCC(=O)N2)C(=O)N2CCC[C@H]2C(N)=O)cn1C", "0.32 µM"],
  ["CC(C)c1nc(C[C@H](NC(=O)[C@@H]2CCC(=O)C2)C(=O)N2CCC[C@H]2C(N)=O)cn1C", "> 50 µM"],
  ["Cn1cc(C[C@H](NC(=O)[C@@H]2CCC(=O)N2)C(=O)N2CCC[C@H]2C(N)=O)nc1C(C)(C)C", "> 50 µM"]
]}

Please look at the following compound next.
Tell me reported Ki for CC(C)n1cnc(C[C@H](NC(=O)[C@@H]2CCC(=O)C2)C(=O)N2CCC[C@H]2C(N)=O)c1 , tested with TRH-R1 (Mus musculus, UniProt P21761). > 50 µM

====

pEC50 values for the compounds below.
# measurementTarget: UniProt:P21761
# testProtocol: Signaling
Field pEC50 (float): negative decimal logarithm of the concentration in molar.

{"columns": ["compound", "endpointLabel", "resultValue"],
 "data": [
  ["Cn1cnc(C[C@H](NC(=O)[C@@H]2CCC(=O)C2)C(=O)N2CCC[C@H]2C(N)=O)c1 [Compd 21 a, (1 R)-3-Ocp-L-His(1-methyl)-L-ProNH2]", "pEC50", 7.30],
  ["CCCc1nc(C[C@H](NC(=O)[C@@H]2CCC(=O)N2)C(=O)N2CCC[C@H]2C(N)=O)cn1C [Compd 10 a, L-pGlu-L-His(1-methyl-2-propyl)-L-ProNH2]", "pEC50", 6.54]
]}

Please look at the following compound next.
Query (compound): CCn1cnc(C[C@H](NC(=O)[C@@H]2CCC(=O)C2)C(=O)N2CCC[C@H]2C(N)=O)c1 [Compd 21 b, (1R)-3-Ocp-L-His(1-ethyl)-L-ProNH2] ; field requested: pEC50 6.85
